PROTOCOL: Measurement of logP by HPLC on reversed phase columns (EEC directive 79/831 Annex V.A8)
Type: physicochemical
CONDITION SET: reversed phase HPLC column, pH 2.7, 0.1% formic acid in water / acetonitrile gradient, read-out: LogP (HCOOH)
METRIC NAME: chromatographic logP
Lab note: record the figure alone, no unit after it.

Incoming: GET /values?readout=chromatographic logP&item= `CCC(C)=NOC(=O)Nc1cccc(CO/N=C(/c2ccccc2)c2nnnn2C)n1`
Outgoing: 3.27

Origin of the recorded values: patent US20130289077A1
